Assay: in-vitro growth inhibition / cytotoxicity in noninfected T4 lymphocytes (UNINFECTED CULTURE)
Type: cell-based
Details: human, cem cells, dose 2.31 × 10^-5 Molar; 6 days; Table 4; read-out: Response (%), uninfected culture (surviving uninfected cells, % of uninfected untreated control)
Method: The assay basically involves the killing of T4 lymphocytes by HIV in cell cultures. Small amounts of HIV are added to cells, and at least two complete cycles of virus reproduction are necessary to obtain the required killing. […] Also, every attempt was made to reduce variability in the assay procedure set forth hereinabove and the values for EC50, IC50 and Therapeutic Index (TI) were determined within experimental limitations.
MEASURED_PARAMETER: viability at 144 h, 23.1 µM (%)
Numbers only here, please. The scale is %.

Query: Consider the molecule COc1ccc(C(Cl)=C(C=O)c2ccc(OC)c(OC)c2)cc1OC [Example 1] and give its measured viability at 144 h, 23.1 µM.
Result: 90.2

====

Assay: in-vitro growth inhibition / cytotoxicity in noninfected T4 lymphocytes (UNINFECTED CULTURE)
Type: cell-based
Conditions: human, cem cells, dose 7.30 × 10^-5 Molar; 6 days; Table 4; read-out: Response (%), uninfected culture (surviving uninfected cells, % of uninfected untreated control)
MEASURED_PARAMETER: viability at 144 h, 73 µM (%)
Numbers only here, please. The scale is %.

Query: Consider the compound COc1ccc(C(Cl)=C(C=O)c2ccc(OC)c(OC)c2)cc1OC and give its measured viability at 144 h, 73 µM.
Result: 83.5

====

Experiment: in-vitro growth inhibition / cytotoxicity in noninfected T4 lymphocytes (UNINFECTED CULTURE)
Assay type: cell-based
Details: human, cem cells, dose 2.31 × 10^-7 Molar; 6 days; Table 4; read-out: Response (%), uninfected culture (surviving uninfected cells, % of uninfected untreated control)
MEASURED_PARAMETER: viability at 144 h, 0.231 µM (%)
Numbers only here, please. The scale is %.

Query: Consider the compound COc1ccc(C(Cl)=C(C=O)c2ccc(OC)c(OC)c2)cc1OC and give its measured viability at 144 h, 0.231 µM.
Result: 104

====

Experiment: in-vitro growth inhibition / cytotoxicity in noninfected T4 lymphocytes (UNINFECTED CULTURE)
Format: cell-based
Details: human, cem cells, dose 2.30 × 10^-4 Molar; 6 days; Table 4; read-out: Response (%), uninfected culture (surviving uninfected cells, % of uninfected untreated control)
MEASURED_PARAMETER: viability at 144 h, 230 µM

Query: Consider the molecule COc1ccc(C(Cl)=C(C=O)c2ccc(OC)c(OC)c2)cc1OC [Example 1] and give its measured viability at 144 h, 230 µM.
Result: 77.3%

// data source = patent US5034544A
